Please provide measured EC50 for the entries that follow.
- test_target: T1, cynomolgus monkey 4-1BB on CHO-K1 cells (cynomolgus monkey)
- T1 chain: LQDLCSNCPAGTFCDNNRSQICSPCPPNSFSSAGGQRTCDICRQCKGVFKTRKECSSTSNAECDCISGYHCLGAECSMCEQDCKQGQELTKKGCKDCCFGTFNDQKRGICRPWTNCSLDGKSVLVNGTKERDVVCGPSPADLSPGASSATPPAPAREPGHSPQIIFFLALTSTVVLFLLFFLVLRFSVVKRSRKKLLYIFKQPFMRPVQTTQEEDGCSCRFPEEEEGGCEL
- test_summary: FACS; FIG. 12A
Kindly answer with a numeric value in pM, unit omitted.

INPUT: Bench note: what EC50 did PR001759 (antibody, V domains shown) VH: EVQLLESGGGLVQPGGSLRLSCAASGFTFSSYAMSWFRQPPETGLQWVSSIGGSGGDTYYADSVKGRFTISRDNSKNTLYLQMNSLRAEDTAVYYCAKEGSNGTDDNYYDVDVWGQGTTVTVSS show?
OUTPUT: 788

INPUT: Same lookup for PR001760 (antibody, V domains shown) VH: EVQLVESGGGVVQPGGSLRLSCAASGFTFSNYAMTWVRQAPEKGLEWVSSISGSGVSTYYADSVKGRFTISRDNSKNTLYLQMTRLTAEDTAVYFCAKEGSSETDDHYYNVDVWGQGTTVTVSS , please.
OUTPUT: 443

INPUT: Same lookup for Utomilumab (antibody, V domains shown) VH: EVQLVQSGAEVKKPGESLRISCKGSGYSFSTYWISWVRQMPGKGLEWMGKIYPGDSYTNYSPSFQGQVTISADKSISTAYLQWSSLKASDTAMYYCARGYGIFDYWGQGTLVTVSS VL: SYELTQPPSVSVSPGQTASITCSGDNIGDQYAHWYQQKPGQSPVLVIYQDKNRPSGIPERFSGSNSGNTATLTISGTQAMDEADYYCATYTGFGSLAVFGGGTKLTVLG , please.
OUTPUT: 3460

INPUT: Same lookup for PR001758 (antibody, V domains shown) VH: EVQLLESGGGLVQLGGSLRLSCAASGFTFSRYAMTWVRQAPEKGLEWVSSISGSGDDTYYGDSVKGRFTISRDNSQNTVYLQMNSLRAEDTAVYFCAKEKAGTTGDYYYNVDVWGQGTTVTVSS , please.
OUTPUT: 575
